# TARGET: Plasmodium falciparum Hsp70-x (full length) (Plasmodium falciparum)
# TEST DESCRIPTION: SPR; PfHsp70-x or PfHsp70-xT immobilised on ProteOn GLC chips as ligands; peptides as analytes at 1.25-20 nM, 50 uL/min; 25 °C; PBS-Tween; no nucleotide
# koff listing for each entry below

BINDER	koff
NRNNTG [peptide NRNNTG]	9.49e-07 s⁻¹
NRLLTG [peptide NRLLTG]	9.97e-06 s⁻¹
ANNNMYRR [peptide ANNNMYRR]	0.000732 s⁻¹
ALLLMYRR [peptide ALLLMYRR]	1.28e-06 s⁻¹
